Where do the numbers come from? From paper PMC3944389.

Experiment: Parallel artificial membrane permeability assay (PAMPA), BBB model, passive diffusion
Assay type: in vitro ADME
Conditions: 200 µM, pH 7.4, 4 h at RT, read-out: Pe x 10^−6
assay_readout: Papp at 4 h, 200 µM (×10⁻⁶ cm/s)
Express it in ×10⁻⁶ cm/s; write the number only.

What the record says about NC(=O)N1c2ccccc2C=Cc2ccccc21 [Carbamazepine] : Papp at 4 h, 200 µM is 11.5
